Listed molecules paired with reported MIC E. faecalis GC 4555
Test system: enterococci
ASSAY_DETAILS: Minimum inhibitory concentration, microdilution broth method, enterococci
Assay type: cell-based
ASSAY_CONDITIONS: E. faecalis GC 4555; Mueller-Hinton broth, 18-22 hours at 35° C.
EXPERIMENTAL_ENDPOINT: MIC E. faecalis GC 4555 (µg/mL)

>>> meas_value("O=C1OC(=Cc2ccc(-c3ccccc3)cc2)C(O)=C1c1cccc(C(F)(F)F)c1 (mixture of isomers)")
8
>>> meas_value("O=C1O/C(=C\\c2ccc(-c3cccc(C(F)(F)F)c3)cc2)C(O)=C1c1cccc(C(F)(F)F)c1")
4
>>> meas_value("O=C1OC(=CC2CCCCC2)C(O)=C1c1cccc(C(F)(F)F)c1")
64
>>> meas_value("O=C1O/C(=C\\c2cc(F)cc(C(F)(F)F)c2)C(O)=C1c1cccc(-c2ccccc2)c1")
8
>>> meas_value("O=C1O/C(=C\\c2ccc(N3CCOCC3)c(F)c2)C(O)=C1c1cc(Cl)cc(Cl)c1")
64
>>> meas_value("COc1ccc(C=C2OC(=O)C(c3cccc(Cl)c3)=C2O)c2ccccc12")
16
